System Name: Cyclooxygenase (Rattus norvegicus, UniProt P35355+Q63921)
Sequence (P35355 whole entry): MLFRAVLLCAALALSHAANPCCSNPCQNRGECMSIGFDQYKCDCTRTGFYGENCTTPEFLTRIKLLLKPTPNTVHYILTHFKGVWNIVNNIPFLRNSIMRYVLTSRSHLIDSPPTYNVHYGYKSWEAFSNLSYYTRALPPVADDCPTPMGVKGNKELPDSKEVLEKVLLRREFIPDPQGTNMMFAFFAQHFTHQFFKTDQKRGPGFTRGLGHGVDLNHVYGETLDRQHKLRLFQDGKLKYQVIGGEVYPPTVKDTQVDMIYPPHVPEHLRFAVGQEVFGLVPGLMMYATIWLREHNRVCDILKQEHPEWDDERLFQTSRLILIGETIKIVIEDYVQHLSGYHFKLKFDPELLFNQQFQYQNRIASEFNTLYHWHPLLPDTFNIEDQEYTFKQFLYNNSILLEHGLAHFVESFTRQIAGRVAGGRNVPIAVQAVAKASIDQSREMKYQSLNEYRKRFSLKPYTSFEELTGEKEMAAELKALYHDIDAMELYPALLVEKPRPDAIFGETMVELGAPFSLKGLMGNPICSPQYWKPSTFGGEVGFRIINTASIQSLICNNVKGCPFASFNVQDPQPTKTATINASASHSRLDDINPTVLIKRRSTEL
Sequence (Q63921 whole entry): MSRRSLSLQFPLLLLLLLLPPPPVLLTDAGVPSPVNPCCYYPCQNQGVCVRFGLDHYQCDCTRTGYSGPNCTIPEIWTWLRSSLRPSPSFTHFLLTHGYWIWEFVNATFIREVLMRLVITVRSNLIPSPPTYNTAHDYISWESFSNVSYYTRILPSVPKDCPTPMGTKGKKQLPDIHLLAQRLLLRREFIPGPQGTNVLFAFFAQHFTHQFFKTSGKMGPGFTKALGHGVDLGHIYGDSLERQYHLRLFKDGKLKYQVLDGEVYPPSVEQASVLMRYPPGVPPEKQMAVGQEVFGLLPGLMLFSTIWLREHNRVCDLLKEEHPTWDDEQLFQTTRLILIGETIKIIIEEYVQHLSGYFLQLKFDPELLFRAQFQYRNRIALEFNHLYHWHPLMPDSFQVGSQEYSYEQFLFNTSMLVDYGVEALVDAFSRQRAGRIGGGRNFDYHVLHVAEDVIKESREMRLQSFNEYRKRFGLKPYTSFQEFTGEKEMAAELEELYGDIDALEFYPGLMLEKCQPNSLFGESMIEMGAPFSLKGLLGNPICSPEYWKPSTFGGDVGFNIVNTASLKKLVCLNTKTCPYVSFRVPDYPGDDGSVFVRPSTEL
Assay Name: Inhibition of rat kidney microsomal COX assessed as PGE2 level using arachidonic acid as substrate preincubated for 5 to 15 mins followed by substrate addition measured after 40 mins by radio immunoassay
Listing of recorded IC50 by entry.
Endpoint Label: IC50 (nM)

> print(dat)
                            compound.smiles  assay.result
1  CS(=O)(=O)c1ccc2c(c1)c1c(n2C(=O)c2ccc(Cl)cc2)CCCC1           116
2  CS(=O)(=O)c1ccc2c(c1)c1c(n2S(=O)(=O)c2ccc(Cl)cc2)CCCC1            79
3  CS(=O)(=O)c1ccc2c(c1)c1c(n2S(=O)(=O)c2ccc(Cl)cc2)CCCC1=O           104
4  COc1ccc2c(c1)c1c(n2C(=O)c2ccc(Cl)cc2)CC(C)(C)CC1=O           141
5  CS(=O)(=O)c1ccc2c(c1)c1c(n2Cc2ccc(Cl)cc2)CCCC1            56
6  CS(=O)(=O)c1ccc2c(c1)c1c(n2C(=O)c2ccc(Cl)cc2)CCCC1=O            48
7  COc1ccc2c(c1)c1c(n2S(=O)(=O)c2ccc(Cl)cc2)CC(C)(C)CC1=O           128
8  CS(=O)(=O)c1ccc2c(c1)c1c(n2Cc2ccc(Cl)cc2)CCCC1=O            93
9  COc1ccc2c(c1)c1c(n2Cc2ccc(Cl)cc2)CC(C)(C)CC1=O           132
